- targetSystem: T1, PUF4 RNA-binding domain (Saccharomyces cerevisiae, UniProt P25339 537-888)
- T1 sequence: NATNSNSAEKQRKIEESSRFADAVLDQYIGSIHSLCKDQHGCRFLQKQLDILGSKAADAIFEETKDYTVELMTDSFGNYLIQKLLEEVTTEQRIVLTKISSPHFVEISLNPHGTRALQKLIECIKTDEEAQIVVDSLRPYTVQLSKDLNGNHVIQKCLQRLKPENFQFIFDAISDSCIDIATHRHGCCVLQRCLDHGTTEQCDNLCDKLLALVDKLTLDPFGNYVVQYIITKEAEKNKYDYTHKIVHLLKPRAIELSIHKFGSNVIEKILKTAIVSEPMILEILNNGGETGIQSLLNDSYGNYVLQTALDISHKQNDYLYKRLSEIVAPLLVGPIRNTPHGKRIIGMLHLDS
- assayRemarks: Mg; RNA-MaP; 20 mM Na-HEPES pH 7.4, 30 mM KOAc, 0.75 mM MgCl2, 0.1% Tween-20, 5% glycerol, 0.1 mg/mL BSA, 2 mM DTT; 25 C; 0.0125-409.6 nM protein
- protocolConditions: tags: N-His6-TEV cleaved; C-SNAP kept, Cy3B-labelled; label: tethered on chip by stalled RNA polymerase
outcomeMeasure: pKd
Just the number, please; pKd means minus log10 of the concentration in mol/L.

Before answering, review these 3 worked examples.
binder	pKd
Ic_S4_P4E.1_K4.1_C4.1_H4.1_A4.1_[T5C]_[A6T]_[T7G]_F4.1_[T8G]_[A9T]_T4.1 (ssRNA) RNA: UUUGACAACUGAUCGUUCUUUCUUGUACUGGUUUCUUUCUCGAUCAGUUGUCUUU	6.01
Id_iii_S2_P4E.5_K4.1_C4.3_[C-2G]_H4.1_A4.1_F4.1_T4.2 (ssRNA) RNA: UUUGAUUAAUAUGAUAUCGUUCUUUCUUGUUGUAUAUUAGUUUCUUUCUCGAUAUCAUAUUAAUCUUU	9.29
ACAAACUGUCUUCUUAACAAAC (ssRNA) [Ib_S3_P5E.1_K5.1_C5.1_H5.1_[A4C]_A5.1_[A7C]_F5.1_T5.1]	5.66

Would you kindly look at the next entry?
Qu. Recorded pKd for Id_ii_S2_P4E.2_K4.1_C4.2_H4.1_A4.1_F4.1_T4.2_[G10C] (ssRNA) RNA: UUUGAUUAAUAUGAUAUCGUUCUUUCUCUUGUAUAUUACUUUCUUUCUCGAUAUCAUAUUAAUCUUU , please?
Ans. 9.24
